The reported numbers originate from patent US20070060558A1.

Tested on: E. coli CIP 54127
MEASUREMENT PROTOCOL: Antibacterial activity (MIC)
Type: cell-based
STATED CONDITIONS: Escherichia coli, CIP54127; E. coli CIP 54127; read-out: MIC
MEASURED PROPERTY: MIC (µg/mL)
# output: bare number, implied unit µg/mL

# input Which MIC reading was recorded for the compound Cl.O=C(O)c1cn(C2CC2)c2cc(N3CCN(CCNc4ccnc5cc(Cl)ccc45)CC3)c(F)cc2c1=O [PA 1127] ?
# output 0.156

# input Quick one: MIC of Cl.O=C(O)c1cn(C2CC2)c2cc(N3CCN(c4ccnc5c(Cl)cccc45)CC3)c(F)cc2c1=O [PA 1285] ?
# output 0.625

# input GET /values?readout=MIC&item= Cl.O=C(O)c1cn(C2CC2)c2cc(N3CCN(c4ccnc5cc(C(F)(F)F)ccc45)CC3)c(F)cc2c1=O [PA 1284]
# output 1.25

# input # get_value(readout='MIC', item= O=C(O)c1cn(C2CC2)c2cc(N3CCNCC3)c(F)cc2c1=O [Ciprofloxacin, reference compound] )
# output 0.01

====

Tested on: S. pneumoniae PRSP CIP 104471
MEASUREMENT PROTOCOL: Antibacterial activity (MIC/MBC)
Format: cell-based, Streptococcus pneumoniae
STATED CONDITIONS: Streptococcus pneumoniae
Give measured MBC for each item. Keep answers brief.

# input Which MBC is reported for this molecule? `CC(=O)OCC1=C(C(=O)O)N2C(=O)[C@@H](NC(=O)CCCNc3ccnc4cc(Cl)ccc34)[C@H]2SC1`
# output 3.12 µg/mL

# input Fill in the blank: the reported MBC of CC(=O)OCC1=C(C(=O)O)N2C(=O)[C@@H](NC(=O)CNc3ccnc4cc(Cl)ccc34)[C@H]2[S+]([O-])C1 (stereo partly drawn) is ____.
# output 3.12 µg/mL

# input Fill blank: measured MBC of the molecule `CC(=O)OCC1=C(C(=O)O)N2C(=O)[C@@H](NC(=O)CNc3ccnc4cc(C(F)(F)F)ccc34)[C@H]2SC1` is ____.
# output 0.78 µg/mL

====

Tested on: Staphylococcus aureus MSSA CIP 4.83
MEASUREMENT PROTOCOL: Antibacterial activity (MIC/MBC)
Format: cell-based
STATED CONDITIONS: Staphylococcus aureus; S. aureus MSSA CIP 4.83; read-out: MIC
Starred links: 1 amine or outer side, 2 acyl side, 3 side chain; linkers in the order of their positions; H or OH if unused. Positions of bridges follow the written chain, without caps; N, C: chain ends. Non-standard residues stand in square brackets, D forms with d. Residues, ends and D or L forms follow the SMILES beside them. ξ: configuration not given here. *: point of attachment. X1 = O=C1C[C@@H](C(=O)[*:2])N([*:1])C[C@H]1CSCCNc1ccnc2cc(Cl)ccc12; NMePhe(4-NMe2) = CN[C@@H](Cc1ccc(N(C)C)cc1)C(=O)O; Picolinoyl(3-OH) = O=C(c1ncccc1O)*; ξPhg = NC(C(=O)O)c1ccccc1; dAbu = CC[C@@H](N)C(=O)O
MEASURED PROPERTY: MIC (µg/mL)
Express it in µg/mL; write the number only.

# input Please give the measured MIC for this compound: CN[C@H](CC(C)C)C(=O)N[C@H]1C(=O)N[C@@H](CC(N)=O)C(=O)N[C@H]2C(=O)N[C@H]3C(=O)N[C@H](C(=O)N[C@H](C(=O)O)c4cc(O)cc(O)c4-c4cc3ccc4O)[C@H](O)c3ccc(c(Cl)c3)Oc3cc2cc(c3OC2OC(CO)C(O)C(O)C2OC2CC(C)(NCc3ccc(OCCNc4ccnc5cc(Cl)ccc45)cc3)C(O)C(C)O2)Oc2ccc(cc2Cl)[C@H]1O (some centres unmarked) [PA 1157]
# output 0.012

# input Entry CC(=O)OCC1=C(C(=O)O)N2C(=O)[C@@H](NC(=O)CCCNc3ccnc4cc(Cl)ccc34)[C@H]2SC1 [PA 1053] : reported MIC = ?
# output 0.78

# input Fill blank: measured MIC of the compound Cl.O=C(O)c1cn(C2CC2)c2cc(N3CCN(c4ccnc5cc(C(F)(F)F)ccc45)CC3)c(F)cc2c1=O [PA 1284] is ____.
# output 0.156

# input # get_value(readout='MIC', item= CC(=O)OCC1=C(C(=O)O)N2C(=O)[C@@H](NC(=O)CNc3ccnc4cc(Cl)ccc34)[C@H]2[S+]([O-])C1 (some centres unmarked) [PA 1092] )
# output 12.5

# input Recorded MIC for CN[C@H](CC(C)C)C(=O)N[C@H]1C(=O)N[C@@H](CC(N)=O)C(=O)N[C@H]2C(=O)N[C@H]3C(=O)N[C@H](C(=O)N[C@H](C(=O)O)c4cc(O)cc(O)c4-c4cc3ccc4O)[C@H](O)c3ccc(c(Cl)c3)Oc3cc2cc(c3OC2OC(CO)C(O)C(O)C2OC2CC(C)(NCCNc3ccnc4cc(Cl)ccc34)C(O)C(C)O2)Oc2ccc(cc2Cl)[C@H]1O (some centres unmarked) [PA 1159] , please?
# output 0.2

# input What value of measured MIC is listed for CC(=O)OCC1=C(C(=O)O)N2C(=O)[C@@H](NC(=O)CNc3ccnc4cc(Cl)ccc34)[C@H]2SC1.Cl [PA 1089] ?
# output 0.2

# input Find the recorded MIC belonging to CC[C@H]1NC(=O)[C@@H](NC(=O)c2ncccc2O)[C@@H](C)OC(=O)C(c2ccccc2)NC(=O)[C@@H]2CC(=O)[C@H](CSCCNc3ccnc4cc(Cl)ccc34)CN2C(=O)[C@H](Cc2ccc(N(C)C)cc2)N(C)C(=O)[C@@H]2CCCN2C1=O (some centres unmarked) [PA 1182] ({Picolinoyl(3-OH)}-T[dAbu]P[NMePhe(4-NMe2)][X1][ξPhg]; ester 1-C) and report it.
# output 0.31

# input Name the reported MIC value associated with the compound CC(=O)OCC1=C(C(=O)O)N2C(=O)[C@@H](NC(=O)CNc3cc(C)nc4ccccc34)[C@H]2SC1 [PA 1101]
# output 0.2

# input What does the data say about its MIC? Entry: CC(=O)OCC1=C(C(=O)O)N2C(=O)[C@@H](NC(=O)CNc3ccnc4cc(Cl)ccc34)[C@H]2SC1 [PA 1046]
# output 0.2

# input What value of measured MIC is listed for CC(=O)OCC1=C(C(=O)O)N2C(=O)[C@@H](NC(=O)CNc3ccnc4cc(C(F)(F)F)ccc34)[C@H]2SC1 [PA 1100] ?
# output 0.2

====

MEASUREMENT PROTOCOL: Stability in solution at pH 1 (HPLC purity over time)
Assay type: physicochemical
STATED CONDITIONS: 0.1 M HCl/ethanol solution; pH 1 in solution at 37° C.
MEASURED PROPERTY: half-life

# input Reported half-life, molecule CO/N=C(\C(=O)N[C@@H]1C(=O)N2C(C(=O)O)=C(CSc3nc(=O)c(=O)[nH]n3C)CS[C@H]12)c1csc(N)n1 [Ceftriaxone, reference compound] : ____
# output < 2 h

====

System: E. faecalis VRE CIP 104676
MEASUREMENT PROTOCOL: Antibacterial activity (MIC/MBC)
Format: cell-based, Enterococcus faecalis
STATED CONDITIONS: Enterococcus faecalis; E. faecalis VRE CIP 104676
MEASURED PROPERTY: MBC

# input MBC for CC(=O)OCC1=C(C(=O)O)N2C(=O)[C@@H](NC(=O)CNc3ccnc4cc(Cl)ccc34)[C@H]2[S+]([O-])C1 (stereo partly drawn) ?
# output > 50 µg/mL

# input // returns reported MBC for input `CC(=O)OCC1=C(C(=O)O)N2C(=O)[C@@H](NC(=O)CNc3ccnc4cc(C(F)(F)F)ccc34)[C@H]2SC1`
# output 25 µg/mL

# input What does the data say about its MBC? Entry: `CC(=O)OCC1=C(C(=O)O)N2C(=O)[C@@H](NC(=O)CCCNc3ccnc4cc(Cl)ccc34)[C@H]2SC1`
# output > 50 µg/mL

====

Tested on: S. pneumoniae PRSP CIP 104471
MEASUREMENT PROTOCOL: Antibacterial activity (MIC/MBC)
Assay type: cell-based, Streptococcus pneumoniae
STATED CONDITIONS: Streptococcus pneumoniae
Label key: Met means MBC under 0.8 µg/mL; Not met means MBC of 0.8 µg/mL or more.

# input Hello, is MBC of the following compound strictly smaller than 0.8 µg/mL? `CC(=O)OCC1=C(C(=O)O)N2C(=O)[C@@H](NC(=O)CNc3ccnc4cc(Cl)ccc34)[C@H]2SC1`
# output Met

# input Consider CO/N=C(\C(=O)N[C@@H]1C(=O)N2C(C(=O)O)=C(CSc3nc(=O)c(=O)[nH]n3C)CS[C@H]12)c1csc(N)n1 [Ceftriaxone, reference compound] . Does its MBC lie strictly below 0.8 µg/mL?
# output Met

# input Does this compound meet the criterion MBC < 0.8 µg/mL? `CC(=O)OCC1=C(C(=O)O)N2C(=O)[C@@H](NC(=O)C3CCN(c4ccnc5cc(Cl)ccc45)CC3)[C@H]2SC1.Cl`
# output Not met

# input A record lists `CC(=O)OCC1=C(C(=O)O)N2C(=O)[C@@H](NC(=O)CCNc3ccnc4cc(Cl)ccc34)[C@H]2SC1` . Is its MBC below 0.8 µg/mL?
# output Not met

# input is_below(MBC, 0.8 µg/mL) for `CC(=O)OCC1=C(C(=O)O)N2C(=O)[C@@H](NC(=O)CNc3ccnc4cc(Cl)ccc34)[C@H]2SC1.Cl` ?
# output Met
